Origin of measurements: the NIST ThermoML archive (doi:10.1016/j.jct.2004.07.010)

# Assay name: refractive index (Na D-line) (dimensionless)
# Run parameters: 293.15 K; 101.33 kPa; Liquid; Standard Abbe refractometry
Measurement kind: refractive index

{"columns": ["Molecule", "Result number"],
 "data": [
  ["C=Cc1ccccc1 [styrene]", 1.546],
  ["O=C1CCCCC1 [cyclohexanone]", 1.4507],
  ["CCc1ccccc1 [ethylbenzene]", 1.4962],
  ["Cc1ccccc1 [toluene]", 1.4965],
  ["c1ccccc1 [benzene]", 1.5009]
]}
